Origin of the recorded values: the supplement of paper PMC9549728

Test system: murine gastric organoid diffuse (Cdh1 fl/fl; Apc fl/fl)
protocol_description: IC50 (viability, PrestoBlue) (log10 nM)
run_parameters: exposure time: 72 h
Where a name gives a salt, the structure may show the parent alone.
Note to self: IC50 (log10 nM) under 3 means YES, ties and anything higher get NO.

// known answers, use as guide
                                   compound  group
0  CCN(CC)CCNC(=O)c1c(C)[nH]c(/C=C2\C(=O)Nc3ccc(F)cc32)c1C     NO
1   Cn1nnc2c(C(N)=O)ncn2c1=O [Temozolomide]     NO
2  Cc1cc(Nc2ncc(Cl)c(Nc3ccccc3S(=O)(=O)C(C)C)n2)c(OC(C)C)cc1C1CCNCC1    YES

Say whether its IC50 (log10 nM) is strictly beneath 3. Entry: `COc1ccc(-c2cc3c(C)nc(N)nc3n([C@H]3CC[C@H](OCCO)CC3)c2=O)cn1`
YES

Say whether its IC50 (log10 nM) is strictly beneath 3. Entry: `COc1cc(Nc2c(C#N)cnc3cc(OCCCN4CCN(C)CC4)c(OC)cc23)c(Cl)cc1Cl`
NO

Say whether its IC50 (log10 nM) is strictly beneath 3. Entry: O[C@@H](COc1cccc2ncccc12)CN1CCN([C@@H]2c3ccccc3[C@@H]3[C@H](c4ccccc42)C3(F)F)CC1 [Zosuquidar trihydrochloride]
NO

====

Test system: murine gastric organoid diffuse (Cdh1 fl/fl; Apc fl/fl)
protocol_description: IC50 (viability, PrestoBlue) (log10 nM)
run_parameters: exposure time: 72 h
Where a name gives a salt, the structure may show the parent alone.
Note to self: IC50 (log10 nM) under 3 means 1.0, ties and anything higher get 0.0.

// known answers, use as guide
                                   molecule  group
0  CC1(C)CCC(CN2CCN(c3ccc(C(=O)NS(=O)(=O)c4ccc(NCC5CCOCC5)c([N+](=O)[O-])c4)c(Oc4cnc5[nH]ccc5c4)c3)CC2)=C(c2ccc(Cl)cc2)C1    0.0
1  O=c1[nH]c(=O)n([C@H]2C[C@H](O)[C@@H](CO)O2)cc1F    0.0
2  Cc1nc(Nc2ncc(C(=O)Nc3c(C)cccc3Cl)s2)cc(N2CCN(CCO)CC2)n1 [Dasatinib hydrochloride]    1.0
3  O=C(c1ccc(F)c(F)c1Nc1ccc(I)cc1F)N1CC(O)([C@@H]2CCCCN2)C1    1.0

Say whether its IC50 (log10 nM) is strictly beneath 3. Entry: `S=P(N1CC1)(N1CC1)N1CC1`
0.0

Say whether its IC50 (log10 nM) is strictly beneath 3. Entry: `CCCCC(=O)OCC(=O)[C@]1(O)Cc2c(O)c3c(c(O)c2[C@@H](O[C@H]2C[C@H](NC(=O)C(F)(F)F)[C@H](O)[C@H](C)O2)C1)C(=O)c1c(OC)cccc1C3=O`
1.0

Say whether its IC50 (log10 nM) is strictly beneath 3. Entry: `CC(C)n1nc(-c2ccc3oc(N)nc3c2)c2c(N)ncnc21`
1.0

Say whether its IC50 (log10 nM) is strictly beneath 3. Entry: `CC(=O)Nc1cccc(-n2c(=O)n(C3CC3)c(=O)c3c(Nc4ccc(I)cc4F)n(C)c(=O)c(C)c32)c1`
1.0

Say whether its IC50 (log10 nM) is strictly beneath 3. Entry: `CNC(=O)[C@@H](NC(=O)[C@H](CC(C)C)[C@H](O)C(=O)NO)C(C)(C)C`
0.0

Say whether its IC50 (log10 nM) is strictly beneath 3. Entry: `CCCCCCCCCCCCCCCCCCOP(=O)([O-])OC1CC[N+](C)(C)CC1`
0.0

Say whether its IC50 (log10 nM) is strictly beneath 3. Entry: `CC(C)C[C@H](NC(=O)[C@H](CCc1ccccc1)NC(=O)CN1CCOCC1)C(=O)N[C@@H](Cc1ccccc1)C(=O)N[C@@H](CC(C)C)C(=O)[C@@]1(C)CO1`
1.0

====

Tested on: murine gastric organoid WNT-activated (Apc fl/fl; Tp53 R172H)
protocol_description: IC50 (viability, PrestoBlue) (log10 nM)
run_parameters: exposure time: 72 h
Where a name gives a salt, the structure may show the parent alone.
endpoint: IC50 (log10 nM)

compound	IC50 (log10 nM)
Cc1c2oc3c(C)ccc(C(=O)N[C@@H]4C(=O)N[C@H](C(C)C)C(=O)N5CCC[C@H]5C(=O)N(C)CC(=O)N(C)[C@@H](C(C)C)C(=O)O[C@@H]4C)c3nc-2c(C(=O)N[C@@H]2C(=O)N[C@H](C(C)C)C(=O)N3CCC[C@H]3C(=O)N(C)CC(=O)N(C)[C@@H](C(C)C)C(=O)O[C@@H]2C)c(N)c1=O [Actinomycin D]	< 0.826
CC(C)c1cc(-c2n[nH]c(=O)n2-c2ccc3c(ccn3C)c2)c(O)cc1O [Ganetespib]	< 0.826

Next up:
Answer with IC50 (log10 nM) of COc1cc2c(Oc3ccc4[nH]c(C)cc4c3F)ncnc2cc1OCCCN1CCCC1 [Cediranib maleate] measured for murine gastric organoid WNT-activated (Apc fl/fl; Tp53 R172H).
< 0.826

====

Test system: murine normal gastric organoid
protocol_description: IC50 (viability, PrestoBlue) (log10 nM)
run_parameters: exposure time: 72 h
Where a name gives a salt, the structure may show the parent alone.
endpoint: IC50 (log10 nM)
Respond with the number and no other words.

compound	IC50 (log10 nM)
CN(C)CCN1C(=O)c2cccc3cc(N)cc(c23)C1=O [Amonafide]	3.1
CC(C)C[C@H](NC(=O)[C@H](CCc1ccccc1)NC(=O)CN1CCOCC1)C(=O)N[C@@H](Cc1ccccc1)C(=O)N[C@@H](CC(C)C)C(=O)[C@@]1(C)CO1 [Carfilzomib]	1.16
CC(=O)c1c(C)c2cnc(Nc3ccc(N4CCNCC4)cn3)nc2n(C2CCCC2)c1=O [Palbociclib]	4.24
COC(=O)[C@]12CCC(C)(C)C[C@H]1[C@H]1C(=O)C=C3[C@@]4(C)C=C(C#N)C(=O)C(C)(C)[C@@H]4CC[C@@]3(C)[C@]1(C)CC2 [bardoxolone methyl]	2.61
O[C@@H](COc1cccc2ncccc12)CN1CCN([C@@H]2c3ccccc3[C@@H]3[C@H](c4ccccc42)C3(F)F)CC1 [Zosuquidar trihydrochloride]	3.88

Next up:
Supply reported IC50 (log10 nM) belonging to this compound: CNC(=O)c1cc(Oc2ccc(NC(=O)Nc3ccc(Cl)c(C(F)(F)F)c3)c(F)c2)ccn1 [Regorafenib]
3.94

====

System: murine normal gastric organoid
protocol_description: IC50 (viability, PrestoBlue) (log10 nM)
run_parameters: exposure time: 72 h
Counter-ions that a name gives are not always drawn.
Item-by-item account of IC50 (log10 nM)
Respond with the number and no other words.

molecule	target_desc	endpoint	numeric_value
CC(C)C[C@H](NC(=O)CNC(=O)c1cc(Cl)ccc1Cl)B(O)O	murine normal gastric organoid	IC50 (log10 nM)	2.8

Answer with IC50 (log10 nM) of `COc1cc2c(cc1OC)CN(CCc1ccc(NC(=O)c3cc(OC)c(OC)cc3NC(=O)c3cnc4ccccc4c3)cc1)CC2` measured for murine normal gastric organoid.
4.26

Answer with IC50 (log10 nM) of CC[C@]12C=CCN3CC[C@@]4(c5cc([C@@]6(C(=O)OC)C[C@@H]7C[C@@H](C(C)(F)F)CN(Cc8c6[nH]c6ccccc86)C7)c(OC)cc5N(C)[C@H]4[C@@](O)(C(=O)OC)[C@@H]1OC(C)=O)[C@@H]32 [Vinflunine tartrate] measured for murine normal gastric organoid.
2.09

Answer with IC50 (log10 nM) of `C=CC(=O)Nc1cc(Nc2nccc(-c3cn(C)c4ccccc34)n2)c(OC)cc1N(C)CCN(C)C` measured for murine normal gastric organoid.
2.73

====

Tested on: murine gastric organoid WNT-activated (Apc fl/fl; Tp53 R172H)
protocol_description: IC50 (viability, PrestoBlue) (log10 nM)
run_parameters: exposure time: 72 h
Where a name gives a salt, the structure may show the parent alone.
endpoint: IC50 (log10 nM)
Respond with the number and no other words.

compound	endpoint	numeric_value
CC[C@@H]1C(=O)N(C)c2cnc(Nc3ccc(C(=O)N[C@H]4CC[C@H](N5CCN(CC6CC6)CC5)CC4)cc3OC)nc2N1C(C)C	IC50 (log10 nM)	2.19

Supply reported IC50 (log10 nM) belonging to this compound: `Nc1ccn([C@@H]2O[C@H](CO)[C@@H](O)[C@@H]2O)c(=O)n1`
2.9

Supply reported IC50 (log10 nM) belonging to this compound: CC[C@]12C=CCN3CC[C@@]4(c5cc([C@@]6(C(=O)OC)C[C@@H]7C[C@@H](C(C)(F)F)CN(Cc8c6[nH]c6ccccc86)C7)c(OC)cc5N(C)[C@H]4[C@@](O)(C(=O)OC)[C@@H]1OC(C)=O)[C@@H]32 [Vinflunine tartrate]
1.63

Supply reported IC50 (log10 nM) belonging to this compound: Cn1nccc1Nc1nccc(-c2ccn([C@H](CO)c3ccc(Cl)c(F)c3)c(=O)c2)n1 [Ravoxertinib]
3.44
